Measured pIC50 accompanies every entry in the list below.
- system tested: N-terminal 6His-tagged ROCK2 catalytic domain 11-552 (Homo sapiens, UniProt O75116)
- Sequence (O75116 11-552): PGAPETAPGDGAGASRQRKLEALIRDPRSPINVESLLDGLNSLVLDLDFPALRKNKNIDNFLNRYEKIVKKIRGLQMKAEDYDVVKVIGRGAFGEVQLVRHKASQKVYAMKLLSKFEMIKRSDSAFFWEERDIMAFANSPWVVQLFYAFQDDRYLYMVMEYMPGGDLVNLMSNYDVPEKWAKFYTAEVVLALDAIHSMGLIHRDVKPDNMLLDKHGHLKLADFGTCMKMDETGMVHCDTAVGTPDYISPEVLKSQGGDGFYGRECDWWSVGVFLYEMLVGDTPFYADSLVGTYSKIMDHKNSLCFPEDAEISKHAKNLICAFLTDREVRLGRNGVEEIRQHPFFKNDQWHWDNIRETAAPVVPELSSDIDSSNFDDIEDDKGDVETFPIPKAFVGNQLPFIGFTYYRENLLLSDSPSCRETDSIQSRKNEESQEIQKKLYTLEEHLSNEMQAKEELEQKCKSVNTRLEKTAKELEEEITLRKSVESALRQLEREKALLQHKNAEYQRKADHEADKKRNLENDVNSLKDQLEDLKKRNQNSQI
pIC50: −log10 of the molar value.

Solved cases (8 shown):
- molecule: "Cn1nc(-c2ccc(-c3ccccn3)cc2)nc1Nc1ccc2[nH]ncc2c1C1CC1"
  pIC50: "> 6.52"
- molecule: "CCNC(=O)c1ccc(-c2nc(Nc3ccc4[nH]ncc4c3C3CC3)n(C)n2)cc1C"
  pIC50: "> 6.52"
- molecule: "Cn1nc(-c2c[nH]c3ccncc23)nc1Nc1ccc2[nH]ncc2c1Cl"
  pIC50: "5.00 to 5.52"
- molecule: "CC(C)NC(=O)COc1ccc(-c2nc(Nc3ccc4[nH]ncc4c3Cl)n(C)n2)c(F)c1"
  pIC50: "> 6.52"
- molecule: "CCNC(=O)c1ccc(-c2nc(Nc3ccc4[nH]ncc4c3Cl)n(C)n2)cc1C(F)(F)F"
  pIC50: "5.00 to 5.52"
- molecule: "CC(C)C(=O)NCCCOc1ccc(-c2nnc(Nc3ccc4[nH]ncc4c3)[nH]2)cc1"
  pIC50: "> 6.52"
- molecule: "CCNC(=O)c1ccc(-c2nc(Nc3ccc4[nH]ncc4c3Cl)n(C)n2)cn1"
  pIC50: "> 6.52"
- molecule: "COc1cc(-c2nc(Nc3ccc4[nH]ncc4c3Cl)n(C)n2)ccc1OCC(=O)NC1CC(O)C1 (stereo not shown)"
  pIC50: "> 6.52"

Bench note, N-terminal 6His-tagged ROCK2 catalytic domain 11-552 (Homo sapiens, UniProt O75116): `CC(C)NC(=O)OCc1ccc(-c2nnc(Nc3ccc4[nH]ncc4c3)[nH]2)cc1` , pIC50 reads > 6.52

Record `CC(C)NC(=O)Cn1cc(-c2nnc(Nc3ccc4[nH]ncc4c3)[nH]2)ccc1=O` ; system N-terminal 6His-tagged ROCK2 catalytic domain 11-552 (Homo sapiens, UniProt O75116); pIC50 = 5.52 to 6.52

Lab note: molecule `C=Cc1c(Nc2nc(-c3ccc(C(=O)NCC)cc3)nn2C)ccc2[nH]ncc12` tested on N-terminal 6His-tagged ROCK2 catalytic domain 11-552 (Homo sapiens, UniProt O75116); recorded pIC50 was > 6.52

Log: N-terminal 6His-tagged ROCK2 catalytic domain 11-552 (Homo sapiens, UniProt O75116), molecule `O=C(NCCOc1ccc(-c2nnc(Nc3ccc4[nH]ncc4c3)[nH]2)cc1)N1CCCC1` , pIC50 = 5.52 to 6.52

Value sought: pIC50, system N-terminal 6His-tagged ROCK2 catalytic domain 11-552 (Homo sapiens, UniProt O75116), item `COc1cc(-c2nc(Nc3ccc4[nH]ncc4c3C3CC3)n(C)n2)ccc1OCC(=O)NC(C)C` . Result: > 6.52
